# target.entity: T1, human CD86-murine Ig fusion protein (human)
# T1 construct: Bought (Ancell #509-820); also called hCD86-mIg
# T1 chain: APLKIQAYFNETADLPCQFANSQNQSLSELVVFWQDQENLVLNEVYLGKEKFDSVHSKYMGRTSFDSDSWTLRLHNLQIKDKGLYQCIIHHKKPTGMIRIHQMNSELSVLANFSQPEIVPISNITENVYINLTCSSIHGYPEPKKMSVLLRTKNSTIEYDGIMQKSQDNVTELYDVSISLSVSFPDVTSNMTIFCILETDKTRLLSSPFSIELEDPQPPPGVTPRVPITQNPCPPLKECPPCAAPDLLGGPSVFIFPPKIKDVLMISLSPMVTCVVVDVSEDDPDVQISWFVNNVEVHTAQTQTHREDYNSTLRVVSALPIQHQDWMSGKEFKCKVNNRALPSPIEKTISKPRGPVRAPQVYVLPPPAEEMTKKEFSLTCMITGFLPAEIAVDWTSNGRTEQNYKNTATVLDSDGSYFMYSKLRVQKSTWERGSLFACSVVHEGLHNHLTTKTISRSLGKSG
# assay.info: SPR Biacore, hCD86-mIg captured
# Method: All Biacore™ analyses were performed on a Biacore™ 2000 system (GE Healthcare) at room temperature (RT, 25° C.). HBS-EP buffer (10 mM HEPES (pH 7.4), 150 mM NaCl, 3 mM EDTA, 0.005% surfactant P20) was used as the flow buffer for all experiments. Rabbit anti-mouse IgG antibody (GE Healthcare, #BR-1005-14) was immobilized on CM5 sensor chips (GE Healthcare, #BR-1000-14) according to the manufacturer's protocol. […]
pKd: −log10 of the molar value.
measure: pKd

Ask: GET /values?readout=pKd&item= D3-2-IgG2 (Fc fusion, also called D3-02-IgG2; D3-02) MHVAQPAVVLASSRGIASFVCEYESPGKATEIRVTVLRQAGSQVTEVCAMTYMKGDELTFLDDPSCTGTFSGNQVNLTIQGLRAADTGLYICKVELMYPPPYYLGFGNGTQIYVIDPEPCPDSDERKCCVECPPCPAPPVAGPSVFLFPPKPKDTLMISRTPEVTCVVVDVSHEDPEVQFNWYVDGVEVHNAKTKPREEQFNSTFRVVSVLTVVHQDWLNGKEYKCKVSNKGLPAPIEKTISKTKGQPREPQVYTLPPSREEMTKNQVSLTCLVKGFYPSDIAVEWESNGQPENNYKTTPPMLDSDGSFFLYSKLTVDKSRWQQGNVFSCSVMHEALHNHYTQKSLSLSPG
Result: 9.58 to 9.88

These entries and their values trace back to patent US20110177071A1.
